assay: Stability of peptides in human liver microsomes; format: in vitro ADME; conditions: human, microsomes
Where a SMILES comes first, the peptide text is derived from it. [ ]: non-standard residue; d: D form. ξ: configuration not given here. ξαMePhe(2,6-F2) = CC(N)(Cc1c(F)cccc1F)C(=O)O; ξαMePhe(2-F) = CC(N)(Cc1ccccc1F)C(=O)O; hArg = N=C(N)NCCCC[C@H](N)C(=O)O; Nle = CCCC[C@H](N)C(=O)O; ξαMeP = CC1(C(=O)O)CCCN1; Ac5c = NC1(C(=O)O)CCCC1; Ac3c = NC1(C(=O)O)CC1; Aib = CC(C)(N)C(=O)O
Consider the following molecules; for each one, report its half-life.
Give bare numbers, in min.

CCCC[C@H](NC(=O)C(C)(Cc1ccccc1F)NC(=O)[C@H](CCC(N)=O)NC(=O)[C@@H](NC(=O)[C@H](CCC(=O)O)NC(=O)C(C)(C)NC(=O)[C@@H](NC(=O)C1(N)CC1)C(C)C)[C@@H](C)CC)C(=O)N[C@@H](Cc1c[nH]cn1)C(=O)N[C@@H](CCC(N)=O)C(=O)N[C@@H](CCCCNC(=N)N)C(=O)NC(C)(C)C(=O)N[C@@H](CCCCN)C(=O)NC(C)(Cc1c(F)cccc1F)C(N)=O (stereo partly drawn) [Seq. ID. 95] (H-[Ac3c]V[Aib]EIQ[ξαMePhe(2-F)][Nle]HQ[hArg][Aib]K[ξαMePhe(2,6-F2)]-NH2) | 30
CCCC[C@H](NC(=O)C(C)(Cc1c(F)cccc1F)NC(=O)[C@H](CCC(N)=O)NC(=O)[C@@H](NC(=O)[C@H](CCC(=O)O)NC(=O)C(C)(C)NC(=O)[C@@H](NC(=O)C1(N)CCCC1)C(C)C)[C@@H](C)CC)C(=O)N[C@@H](Cc1c[nH]cn1)C(=O)N[C@@H](CCC(N)=O)C(=O)N[C@@H](CCCCNC(=N)N)C(=O)NC(C)(C)C(=O)NC(C)(Cc1c(F)cccc1F)C(=O)NC(C)(Cc1c(F)cccc1F)C(N)=O (stereo partly drawn) [Seq. ID. 240] (H-[Ac5c]V[Aib]EIQ[ξαMePhe(2,6-F2)][Nle]HQ[hArg][Aib][ξαMePhe(2,6-F2)][ξαMePhe(2,6-F2)]-NH2) | 60

# lookup: half-life of CCCC[C@H](NC(=O)C(C)(Cc1c(F)cccc1F)NC(=O)[C@H](CCC(N)=O)NC(=O)[C@@H](NC(=O)[C@H](CCC(=O)O)NC(=O)C(C)(C)NC(=O)[C@@H](NC(=O)C1(N)CC1)C(C)C)[C@@H](C)CC)C(=O)N[C@@H](Cc1c[nH]cn1)C(=O)N[C@@H](CCC(N)=O)C(=O)N[C@@H](CCCCNC(=N)N)C(=O)N1CCCC1(C)C(=O)N[C@@H](CCCCN)C(=O)NC(C)(Cc1ccccc1F)C(N)=O (stereo partly drawn) [Seq. ID. 75] (H-[Ac3c]V[Aib]EIQ[ξαMePhe(2,6-F2)][Nle]HQ[hArg][ξαMeP]K[ξαMePhe(2-F)]-NH2)
30
